Molecular target: T1, human ferroportin (SLC40A1) fused in frame with GFP, stably expressed in HEK293 cells (human, UniProt Q9NP59 1-571)
T1 sequence (looked up): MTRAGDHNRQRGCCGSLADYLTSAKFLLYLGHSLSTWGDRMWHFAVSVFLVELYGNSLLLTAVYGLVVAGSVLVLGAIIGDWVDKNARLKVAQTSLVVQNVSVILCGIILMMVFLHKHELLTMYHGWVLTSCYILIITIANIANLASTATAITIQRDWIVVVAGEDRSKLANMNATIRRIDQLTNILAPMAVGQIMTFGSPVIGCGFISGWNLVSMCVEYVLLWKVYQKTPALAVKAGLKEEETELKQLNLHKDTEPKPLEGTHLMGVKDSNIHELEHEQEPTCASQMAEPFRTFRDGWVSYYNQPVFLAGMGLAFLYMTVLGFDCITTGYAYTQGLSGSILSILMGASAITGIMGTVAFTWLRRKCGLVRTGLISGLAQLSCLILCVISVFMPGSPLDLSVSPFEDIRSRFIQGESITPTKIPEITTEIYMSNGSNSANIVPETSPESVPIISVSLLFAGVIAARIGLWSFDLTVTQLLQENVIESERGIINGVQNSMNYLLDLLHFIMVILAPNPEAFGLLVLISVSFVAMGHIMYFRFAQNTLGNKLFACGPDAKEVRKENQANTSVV
Experiment: cell-based or functional assay
Side chains are listed from the residue outwards. * marks the point of attachment. Palmitoyl = CCCCCCCCCCCCCCCC(=O)*; Isovaleryl = CC(C)CC(=O)*; dapa = not defined here
value_type: Potency EC50 (nM)

Isovaleryl-DTHFPCIKFEPRSKGCK([dapa-Palmitoyl])K-NH2 (not fully specified (bridges); cysteine pairing not given here; reading uncertain) [Compound 230]    10
